Where do these numbers come from? They come from patent US9834518B2.

- TARGET UNDER TEST: BAF3 EGFR DEL T790M PURO POOL (Homo sapiens, UniProt P00533, DEL746-750/T790M, cells depend on it)
- Sequence (P00533 with tags, fused parts or gaps DEL746-750/T790M): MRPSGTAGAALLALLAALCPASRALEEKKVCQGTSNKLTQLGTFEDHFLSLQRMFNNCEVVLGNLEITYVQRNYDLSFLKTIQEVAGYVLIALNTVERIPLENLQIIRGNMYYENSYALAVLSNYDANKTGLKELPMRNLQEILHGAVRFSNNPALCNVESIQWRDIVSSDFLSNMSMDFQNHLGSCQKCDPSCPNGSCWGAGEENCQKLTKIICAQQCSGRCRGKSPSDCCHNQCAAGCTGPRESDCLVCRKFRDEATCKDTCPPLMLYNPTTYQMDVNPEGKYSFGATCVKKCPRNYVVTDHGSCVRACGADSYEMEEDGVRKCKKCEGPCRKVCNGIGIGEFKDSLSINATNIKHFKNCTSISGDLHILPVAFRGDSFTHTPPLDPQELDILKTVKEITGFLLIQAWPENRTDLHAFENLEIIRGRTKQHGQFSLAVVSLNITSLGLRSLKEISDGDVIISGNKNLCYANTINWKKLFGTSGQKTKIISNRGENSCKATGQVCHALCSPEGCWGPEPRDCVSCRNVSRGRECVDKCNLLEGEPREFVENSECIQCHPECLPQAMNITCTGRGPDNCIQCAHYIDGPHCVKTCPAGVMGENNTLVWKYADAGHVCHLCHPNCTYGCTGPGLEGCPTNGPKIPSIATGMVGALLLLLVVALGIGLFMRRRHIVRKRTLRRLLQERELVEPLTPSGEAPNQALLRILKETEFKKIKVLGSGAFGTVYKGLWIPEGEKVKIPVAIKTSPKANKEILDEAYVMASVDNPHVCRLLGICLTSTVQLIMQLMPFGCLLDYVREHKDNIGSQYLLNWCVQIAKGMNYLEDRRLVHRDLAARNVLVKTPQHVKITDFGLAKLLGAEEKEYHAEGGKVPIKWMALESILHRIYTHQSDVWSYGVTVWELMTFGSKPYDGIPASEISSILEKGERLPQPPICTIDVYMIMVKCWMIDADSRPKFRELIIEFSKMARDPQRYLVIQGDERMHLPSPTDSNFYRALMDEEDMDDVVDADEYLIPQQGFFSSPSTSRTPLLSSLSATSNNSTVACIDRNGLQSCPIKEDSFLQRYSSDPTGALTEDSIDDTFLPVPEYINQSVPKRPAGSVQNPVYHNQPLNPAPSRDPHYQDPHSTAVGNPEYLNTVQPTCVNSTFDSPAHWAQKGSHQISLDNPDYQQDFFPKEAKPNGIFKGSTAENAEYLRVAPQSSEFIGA
- MEASUREMENT NOTES: Cell proliferation (MTT), BAF3 EGFR DEL T790M
- Format: cell-based
EXPERIMENTAL ENDPOINT: IC50

{"MOLECULE": "C=CC(=O)Nc1ccc(OC)c(Nc2ncc(F)c(Nc3ccccc3P(C)(C)=O)n2)c1", "IC50": "51 to 100 nM"}

For every item in the list below, what is its measured IC50?
1. C=CC(=O)Nc1cccc(Oc2nc(Nc3ccc(P(C)(C)=O)cc3OC)ncc2Cl)c1
2. C=CC(=O)Nc1cc(Nc2ncc(Cl)c(Nc3ccccc3P(=O)(CC)CC)n2)c(OC)cc1OCCN(C)C
3. C=CC(=O)Nc1cc(Nc2ncc(Cl)c(Nc3ccccc3P(C)(C)=O)n2)c(OC)cc1O[C@H](COC)CN(CC)CC (stereo in doubt)
4. C=CC(=O)Nc1ccc(OC)c(Nc2ncc(Cl)c(Nc3cccc(F)c3P(C)(C)=O)n2)c1
5. C=CC(=O)N[C@H]1CCC[C@@H](Nc2ncc(Cl)c(Nc3ccccc3P(C)(C)=O)n2)C1 (stereo in doubt)

Reply:
1: 51 to 100 nM; 2: < 51 nM; 3: < 51 nM; 4: < 51 nM; 5: ≥ 250 nM
